experiment: in vivo; conditions: po, Mouse p.o., read-out: LD50 (48 hr)
Catalogue of LD50 at 48 h values

| COMPOUND | LD50 at 48 h |
| --- | --- |
| O=C1NC(c2ccccc2)N(CCN2CCN(c3ccccc3)CC2)c2ccccc21 (centres unmarked) | > 10000 mg/kg |
| NC(=O)c1ccccc1NCCN1CCN(c2ccccc2)CC1 [Example 730-372A] | > 1000 mg/kg |

====

Catalogue of LD50 at 48 h values
test: in vivo; conditions: ip, Mouse i.p., read-out: LD50 (48 hr)

| COMPOUND | LD50 at 48 h |
| --- | --- |
| O=C1NC(c2ccccc2)N(CCN2CCN(c3ccccc3)CC2)c2ccccc21 (centres unmarked) [Example II] | > 2500 mg/kg |
| NC(=O)c1ccccc1NCCN1CCN(c2ccccc2)CC1 [Example 730-372A] | > 1000 mg/kg |

====

Catalogue of selectivity ratio values
assay: in vivo; conditions: mouse, ip

| MOLECULE | selectivity ratio |
| --- | --- |
| O=C1NC(c2ccccc2)N(CCN2CCN(c3ccccc3)CC2)c2ccccc21 (centres unmarked) [Example II] | 3.4 |
| NC(=O)c1ccccc1NCCN1CCN(c2ccccc2)CC1 [Example I] | 1.2 |

====

assay: phenylbenzoquinone writhing test, mouse; type: in vivo; conditions: mouse, in vivo, sc
PROPERTY NAME: selectivity ratio

| MOL | ASSAY RESULT |
| --- | --- |
| NC(=O)c1ccccc1NCCN1CCN(c2ccccc2)CC1 | 6.3 |

====

assay: in vivo; conditions: mouse, ip, HNSD./ED50 H.P., Mouse i.p., HNSD = highest dose without gross symptoms

| MOLECULE | selectivity ratio |
| --- | --- |
| COc1ccc2c3c1O[C@H]1[C@@H](O)C=C[C@H]4[C@@H](C2)N(C)CC[C@@]341 [Codeine, reference compound] | 2.6 |

====

assay: in vivo; parameters: species or system mice, rats, cats and monkeys

| MOLECULE | selectivity ratio |
| --- | --- |
| O=C1NC(c2ccccc2)N(CCN2CCN(c3ccccc3)CC2)c2ccccc21 (stereo not shown) | ~10 |

====

experiment: in vivo; conditions: mouse, po
Catalogue of selectivity ratio values

| COMPOUND | selectivity ratio |
| --- | --- |
| O=C1NC(c2ccccc2)N(CCN2CCN(c3ccccc3)CC2)c2ccccc21 (centres unmarked) [Example II] | 5 |
| NC(=O)c1ccccc1NCCN1CCN(c2ccccc2)CC1 [Example I] | 1.9 |

====

Catalogue of selectivity ratio values
test: mouse hot plate test (Eddy and Leimbach, modified); settings: mouse, in vivo, po, LD50 /ED50 H.P., Mouse p.o.
PROPERTY NAME: selectivity ratio

| COMPOUND | ASSAY RESULT |
| --- | --- |
| NC(=O)c1ccccc1NCCN1CCN(c2ccccc2)CC1 | > 330 |
| O=C1NC(c2ccccc2)N(CCN2CCN(c3ccccc3)CC2)c2ccccc21 (centres unmarked) | > 50 |

====

Catalogue of LD50 at 48 h values
assay: acute toxicity, rat; conditions: in vivo, sc; Rat s.c.; preliminary result

| MOLECULE | LD50 at 48 h |
| --- | --- |
| NC(=O)c1ccccc1NCCN1CCN(c2ccccc2)CC1 [Example 730-372A] | > 1000 mg/kg |
| O=C1NC(c2ccccc2)N(CCN2CCN(c3ccccc3)CC2)c2ccccc21 (centres unmarked) [Example II] | > 1000 mg/kg |

====

experiment: phenylbenzoquinone writhing test, rat; format: in vivo; conditions: rat, in vivo, po, Rat p.o.; read-out: LD50 /ED50 Writhing

| COMPOUND | selectivity ratio |
| --- | --- |
| O=C1NC(c2ccccc2)N(CCN2CCN(c3ccccc3)CC2)c2ccccc21 (stereo not shown) | 71 |

====

assay: in vivo; details: mouse, ip
PROPERTY NAME: LD50 at 48 h (mg/kg)

| COMPOUND | ASSAY RESULT |
| --- | --- |
| COc1ccc2c3c1O[C@H]1[C@@H](O)C=C[C@H]4[C@@H](C2)N(C)CC[C@@]341 [Codeine, reference compound] | 104 |

====

assay: in vivo; conditions: mouse, ip, LD50 /ED50 H.P., Mouse i.p.
PROPERTY NAME: selectivity ratio

| COMPOUND | PROPERTY NAME | ASSAY RESULT |
| --- | --- | --- |
| COc1ccc2c3c1O[C@H]1[C@@H](O)C=C[C@H]4[C@@H](C2)N(C)CC[C@@]341 [Codeine, reference compound] | selectivity ratio | 8.7 |

====

experiment: in vivo; conditions: ip
We label by threshold. Values of NOAEL strictly beneath 10 mg/kg are 1 (yes). Values of 10 mg/kg and up are 0 (no).

| COMPOUND | CATEGORY |
| --- | --- |
| NC(=O)c1ccccc1NCCN1CCN(c2ccccc2)CC1 | 1 (yes) |
| CC(CN1CCN(c2ccccc2)CC1)Nc1ccccc1C(N)=O (stereo not drawn) | 1 (yes) |
| O=C(Nc1ccccc1)c1ccccc1NCCN1CCN(c2ccccc2)CC1 | 1 (yes) |
| CC(C)=CCN1CCC2(C)c3cc(O)ccc3CC1C2C (stereo not drawn) [Pentazocine, reference compound] | 0 (no) |
| CNC(=O)c1ccccc1NCCN1CCN(c2ccccc2)CC1 | 1 (yes) |
| CCC(=O)OC1(c2ccccc2)CCN(CCNc2ccccc2C(N)=O)CC1 | 1 (yes) |
| CCOC(=O)C1(c2ccccc2)CCN(C)CC1 [Merperidine, reference compound] | 0 (no) |
| COc1ccc(NCCN2CCN(c3ccccc3)CC2)c(C(N)=O)c1 | 1 (yes) |
| CCC(=O)OC1(c2ccccc2)CCN(CCN(Cc2ccccc2)c2ccccc2C(N)=O)CC1 [Example XXVII (Step 5 Title Compound)] | 1 (yes) |
| CCOc1ccc(NCCN2CCN(c3ccccc3)CC2)c(C(N)=O)c1 | 0 (no) |
| COC(=O)c1ccccc1NCCN1CCN(c2ccccc2)CC1 | 0 (no) |
| CS(=O)(=O)O.O=C1NC(c2ccccc2)N(CCN2CCC(O)(c3ccccc3)CC2)c2ccccc21 (stereo not drawn) | 1 (yes) |
| COc1ccc(N2CCN(CCNc3ccccc3C(N)=O)CC2)cc1 | 1 (yes) |

====

Catalogue of LD50 at 48 h values
assay: in vivo; conditions: sc, Mouse s.c., read-out: LD50 (48 hr)

| COMPOUND | LD50 at 48 h |
| --- | --- |
| NC(=O)c1ccccc1NCCN1CCN(c2ccccc2)CC1 [Example 730-372A] | > 1000 mg/kg |
| O=C1NC(c2ccccc2)N(CCN2CCN(c3ccccc3)CC2)c2ccccc21 (centres unmarked) | > 1000 mg/kg |

====

test: phenylbenzoquinone writhing test, rat; type: in vivo; settings: rat, in vivo, po
PROPERTY NAME: selectivity ratio

| COMPOUND | ASSAY RESULT |
| --- | --- |
| O=C1NC(c2ccccc2)N(CCN2CCN(c3ccccc3)CC2)c2ccccc21 (stereo not shown) | 7.1 |

====

assay: phenylbenzoquinone writhing test, rat; type: in vivo; settings: rat, in vivo, Rat Sub. cut; read-out: LD50 /ED50 Writhing

| MOLECULE | selectivity ratio |
| --- | --- |
| NC(=O)c1ccccc1NCCN1CCN(c2ccccc2)CC1 [Example I] | 400 |

====

assay: in vivo; details: ip
Catalogue of NOAEL values
PROPERTY NAME: NOAEL (mg/kg)

| COMPOUND | MEASUREMENT UNIT | ASSAY RESULT |
| --- | --- | --- |
| NC(=O)c1ccccc1N(CCN1CCC(O)(c2ccccc2)CC1)Cc1ccccc1 [Example XXVII (Step 4 Title Compound)] | mg/kg | 10 |
| NC(=O)c1ccccc1NCCN1CCCCC1 [XXXI] | mg/kg | 10 |
| Cl.NC(=O)c1cc(N)ccc1NCCN1CCN(c2ccccc2)CC1 [XXI] | mg/kg | 10 |
| NC(=O)c1ccccc1NCCN1CCC(c2ccccc2)CC1 [XXX] | mg/kg | 10 |
| Cl.Cl.Cl.NC(=O)c1ccccc1NCCN1CCN(Cc2ccccc2)CC1 [Example XX] | mg/kg | 10 |
| Cl.NC(=O)c1ccccc1NCCN1CCN(CCc2ccccc2)CC1 [XVII] | mg/kg | 10 |
| Cl.O=C(c1ccccc1NCCN1CCN(c2ccccc2)CC1)N1CCOCC1 [XVI] | mg/kg | 10 |
| CC(CNc1ccccc1C(N)=O)N1CCN(c2ccccc2)CC1.Cl (centres unmarked) [XIV] | mg/kg | 10 |
